ASSAYED_SYSTEM: UBE2D3; further: test concentration or dose not given here
PROTOCOL_DESCRIPTION: reporter assay of Huesken 2005
ASSAY_CONTEXT: siRNA
Oligonucleotides are given in HELM: sugar(base)linkage, 5' to 3'; d 2'-deoxyribose, r ribose, m 2'-O-methylribose, p phosphate. ss, as = sense and antisense strand
MEASURED_QUANTITY: normalised inhibition (eCFP-eYFP dual reporter) (%)
Your answer is read as %, so omit the unit and give the number.

RNA1{r(G)p.r(G)p.r(C)p.r(A)p.r(A)p.r(G)p.r(C)p.r(C)p.r(A)p.r(C)p.r(A)p.r(A)p.r(U)p.r(U)p.r(A)p.r(U)p.r(G)p.r(G)p.r(G)p.d(T)p.d(T)}|RNA2{r(C)p.r(C)p.r(C)p.r(A)p.r(U)p.r(A)p.r(A)p.r(U)p.r(U)p.r(G)p.r(U)p.r(G)p.r(G)p.r(C)p.r(U)p.r(U)p.r(G)p.r(C)p.r(C)p.d(A)p.d(A)}$$$RNA1{StrandType:ss}|RNA2{StrandType:as}$	60.2

stdin: Requested field: normalised inhibition (eCFP-eYFP dual reporter). Item: RNA1{r(U)p.r(U)p.r(U)p.r(A)p.r(C)p.r(A)p.r(A)p.r(C)p.r(A)p.r(A)p.r(G)p.r(A)p.r(A)p.r(U)p.r(U)p.r(U)p.r(A)p.r(U)p.r(C)p.d(T)p.d(T)}|RNA2{r(G)p.r(A)p.r(U)p.r(A)p.r(A)p.r(A)p.r(U)p.r(U)p.r(C)p.r(U)p.r(U)p.r(G)p.r(U)p.r(U)p.r(G)p.r(U)p.r(A)p.r(A)p.r(A)p.d(T)p.d(G)}$$$RNA1{StrandType:ss}|RNA2{StrandType:as}$
stdout: 48.8

stdin: Requested field: normalised inhibition (eCFP-eYFP dual reporter). Item: RNA1{r(A)p.r(U)p.r(C)p.r(A)p.r(U)p.r(C)p.r(C)p.r(A)p.r(A)p.r(A)p.r(U)p.r(A)p.r(U)p.r(U)p.r(A)p.r(A)p.r(C)p.r(A)p.r(G)p.d(T)p.d(T)}|RNA2{r(C)p.r(U)p.r(G)p.r(U)p.r(U)p.r(A)p.r(A)p.r(U)p.r(A)p.r(U)p.r(U)p.r(U)p.r(G)p.r(G)p.r(A)p.r(U)p.r(G)p.r(A)p.r(U)p.d(A)p.d(A)}$$$RNA1{StrandType:ss}|RNA2{StrandType:as}$
stdout: 32
